Origin of values: patent US5589506A

# target.of.assay: 5-lipoxygenase (Rattus norvegicus)
# Construct: Cultured cells were collected and washed twice; host or cells: RBL-1 rat basophilic leukemia cells (sonicate, 10,000 x g supernatant)
# Sequence (P12527 whole entry): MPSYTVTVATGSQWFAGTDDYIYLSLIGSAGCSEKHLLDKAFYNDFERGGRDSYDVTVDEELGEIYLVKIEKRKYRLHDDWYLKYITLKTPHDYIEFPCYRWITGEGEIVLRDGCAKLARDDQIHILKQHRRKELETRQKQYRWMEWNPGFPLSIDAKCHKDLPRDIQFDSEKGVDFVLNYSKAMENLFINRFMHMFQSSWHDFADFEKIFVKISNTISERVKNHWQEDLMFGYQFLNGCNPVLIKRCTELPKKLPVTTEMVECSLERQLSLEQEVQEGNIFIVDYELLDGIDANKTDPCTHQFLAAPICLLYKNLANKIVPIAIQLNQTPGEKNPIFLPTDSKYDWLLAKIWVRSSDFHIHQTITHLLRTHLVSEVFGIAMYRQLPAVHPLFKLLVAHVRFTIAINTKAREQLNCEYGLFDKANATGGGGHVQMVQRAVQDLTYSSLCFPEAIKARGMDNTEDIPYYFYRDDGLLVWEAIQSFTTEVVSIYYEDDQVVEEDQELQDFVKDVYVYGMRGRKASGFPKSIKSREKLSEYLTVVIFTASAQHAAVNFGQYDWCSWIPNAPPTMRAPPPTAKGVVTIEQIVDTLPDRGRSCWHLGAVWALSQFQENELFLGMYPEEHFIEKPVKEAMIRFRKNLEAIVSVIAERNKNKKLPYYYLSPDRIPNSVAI
# procedure.text: 5-lipoxygenase inhibition assay (rat basophilic leukemia cell RBL-1 enzyme solution)
# Type: biochemical
# study.conditions: Table 3; read-out: IC50 values of 5-lipoxygenase (mole)
I'd appreciate it if you marked entries TRUE when IC50 is lower than 0.07 µM and FALSE when it is not.

As a guide, the following entries are already answered.
CCc1ccc(C(C#N)=Cc2ccc(O)c(O)c2)cc1 ... TRUE
N#CC(=Cc1ccc(O)c(O)c1)c1ccc(Br)s1 ... TRUE
N#CC(=Cc1ccc(O)c(O)c1)c1ccccc1 ... FALSE

Task: Lab note: confirm whether the reported IC50 for this compound is below 0.07 µM, equality not counting. compound: Cc1cccc(C=C(C#N)c2ccc(O)c(O)c2)c1 [Bz. 25, α-cyano-3'-methyl-3,4-dihydroxystilbene]
Output: TRUE
